The measurements presented in this section are drawn from patent US20080255207A1.

# assay-target: human LXRbeta (Homo sapiens, UniProt P55055)
# Construct: LXRbeta (amino acid 216-461); expressed in transfected cells; host or cells: U2/OS osteosarcoma cells, electroporated with pSGGAL-LXRbeta
# Sequence (P55055 215-460 limits assumed): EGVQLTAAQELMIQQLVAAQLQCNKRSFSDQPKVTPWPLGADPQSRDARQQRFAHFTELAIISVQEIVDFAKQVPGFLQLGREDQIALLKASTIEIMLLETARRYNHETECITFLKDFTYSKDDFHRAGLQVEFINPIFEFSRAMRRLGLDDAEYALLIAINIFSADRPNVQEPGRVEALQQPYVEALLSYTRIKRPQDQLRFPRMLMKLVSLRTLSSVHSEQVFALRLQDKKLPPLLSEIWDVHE
# test-protocol: Transactivation (reporter gene) assay, GAL4-LXRbeta LBD luciferase in U2/OS cells
# Format: cell-based
# particulars: U2/OS osteosarcoma cells, 48 h; T0901317 at 1 μM as 100% control
measured-attribute: pEC50
Just so you know, pEC50 here is -log10 of the concentration in molar units; reply with that number alone.

What the record says about Nc1ccc(CN2C(=O)C(Nc3ccc(OC(F)F)cc3)=C(c3ccccc3)C2=S)cn1 : pEC50 is 6.49
